Every entry's value here was drawn from paper PMC10641831.

system_under_test: hOTR (Homo sapiens, UniProt P30559)
Construct: expressed in transfected cells
Sequence (P30559 whole entry): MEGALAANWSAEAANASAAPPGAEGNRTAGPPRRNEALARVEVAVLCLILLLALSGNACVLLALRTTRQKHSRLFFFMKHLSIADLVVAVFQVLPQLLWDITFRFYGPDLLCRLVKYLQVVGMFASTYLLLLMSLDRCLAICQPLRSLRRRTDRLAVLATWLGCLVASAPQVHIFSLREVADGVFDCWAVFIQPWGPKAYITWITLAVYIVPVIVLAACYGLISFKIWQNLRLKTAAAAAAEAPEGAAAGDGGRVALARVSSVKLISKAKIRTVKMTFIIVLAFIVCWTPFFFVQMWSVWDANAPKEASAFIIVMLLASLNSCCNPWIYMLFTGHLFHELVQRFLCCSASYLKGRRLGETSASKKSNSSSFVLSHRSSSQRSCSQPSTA
procedure_summary: IP-One accumulation assay, agonist function, HEK293 cells expressing hOTR
Type: cell-based
run_conditions: supplementary CSV; read-out: activity E-isomer OTR
Numbered stars: 1 amine (or outer) side, 2 acyl side, 3 side chain; on linkers, the order of the positions; unused ones are H or OH. Bridge positions count the residues as written; N and C are the ends. Square brackets hold non-standard residues; d marks the D form. Peptide text beside a SMILES is read from it. AMPB(E) = O=C(c1ccc(/N=N/c2ccc(CN[*:1])cc2)cc1)[*:2]; X1 = O=C([C@H](Cc1ccc(/N=N/c2ccccc2)cc1)N[*:1])[*:2]
reported_property: pEC50
Remember, pEC50 is on a log scale: it is -log10 of the molar concentration.

Exercise: Any idea what its pEC50 is? The molecule is CC[C@H](C)[C@@H]1NC(=O)[C@H](Cc2ccc(/N=N/c3ccccc3)cc2)NC(=O)[C@@H](N)CSSC[C@@H](C(=O)N2CCC[C@H]2C(=O)N[C@@H](CC(C)C)C(=O)NCC(N)=O)NC(=O)[C@H](CC(N)=O)NC(=O)[C@H](CCC(N)=O)NC1=O [compound 8, [AzbS^2]-OT] (H-C[X1]IQNCPLG-NH2; disulfide 1-6)
Key: 5.35

Exercise: What would you report for CC[C@H](C)[C@@H]1NC(=O)[C@H](Cc2ccc(O)cc2)NC(=O)[C@@H](N)CSSC[C@@H](C(=O)N[C@@H](Cc2ccc(/N=N/c3ccccc3)cc2)C(=O)N[C@@H](CC(C)C)C(=O)NCC(N)=O)NC(=O)[C@H](CC(N)=O)NC(=O)[C@H](CCC(N)=O)NC1=O [compound 9, [AzbS^7]-OT] (H-CYIQNC[X1]LG-NH2; disulfide 1-6) ?
Key: 6.46

Exercise: Another molecule to look at: CC[C@H](C)[C@@H]1NC(=O)[C@H](Cc2ccc(O)cc2)NC(=O)[C@@H](N)CSSC[C@@H](C(=O)NCc2ccc(/N=N/c3ccc(C(=O)N[C@@H](CC(C)C)C(=O)NCC(N)=O)cc3)cc2)NC(=O)[C@H](CC(N)=O)NC(=O)[C@H](CCC(N)=O)NC1=O [compound 11, [AzbL^7]-OT] (H-CYIQNC[AMPB(E)]LG-NH2; disulfide 1-6)
Key: 6.58

Exercise: Would you mind doing CC[C@H](C)[C@@H]1NC(=O)[C@H](Cc2ccc(O)cc2)NC(=O)[C@@H](N)CSSC[C@@H](C(=O)NCc2ccc(/N=N/c3ccc(C(=O)NCC(N)=O)cc3)cc2)NC(=O)[C@H](CC(N)=O)NC(=O)[C@H](CCC(N)=O)NC1=O [compound 10, [AzbL^7/8]-OT] (H-CYIQNC[AMPB(E)]G-NH2; disulfide 1-6) as well?
Key: 7.02

###

procedure_summary: Photostationary state by analytical C18-RP-HPLC
Assay type: physicochemical
run_conditions: irradiation with 420 nm (8–17) or 528 nm (18, 19)
Numbered stars: 1 amine (or outer) side, 2 acyl side, 3 side chain; on linkers, the order of the positions; unused ones are H or OH. Bridge positions count the residues as written; N and C are the ends. Square brackets hold non-standard residues; d marks the D form. Peptide text beside a SMILES is read from it. AMPB(E) = O=C(c1ccc(/N=N/c2ccc(CN[*:1])cc2)cc1)[*:2]
reported_property: PSS (Z → E) (%)
Use % as the unit, but write only the number.

Exercise: Entry N=C(N)NCCC[C@H](NC(=O)c1ccc(/N=N/c2ccc(CNC(=O)[C@@H]3CSSC[C@H](N)C(=O)N[C@@H](Cc4ccc(O)cc4)C(=O)N[C@@H](Cc4ccccc4)C(=O)N[C@@H](CCC(N)=O)C(=O)N[C@@H](CC(N)=O)C(=O)N3)cc2)cc1)C(=O)NCC(N)=O [compound 14, [AzbL^7]-VP] (H-CYFQNC[AMPB(E)]RG-NH2; disulfide 1-6) : reported PSS (Z → E) = ?
Key: 86

Exercise: Cool, now NC(=O)CC[C@@H]1NC(=O)[C@H](Cc2ccccc2)NC(=O)[C@H](Cc2ccc(O)cc2)NC(=O)[C@@H](N)CSSC[C@@H](C(=O)NCc2ccc(/N=N/c3ccc(C(=O)NCC(N)=O)cc3)cc2)NC(=O)[C@H](CC(N)=O)NC1=O [compound 13, [AzbL^7/8]-VP] (H-CYFQNC[AMPB(E)]G-NH2; disulfide 1-6)
Key: 79

Exercise: Queued: CC[C@H](C)[C@@H]1NC(=O)[C@H](Cc2ccc(O)cc2)NC(=O)[C@@H](N)CSSC[C@@H](C(=O)NCc2ccc(/N=N/c3ccc(C(=O)NCC(N)=O)cc3)cc2)NC(=O)[C@H](CC(N)=O)NC(=O)[C@H](CCC(N)=O)NC1=O [compound 10, [AzbL^7/8]-OT] (H-CYIQNC[AMPB(E)]G-NH2; disulfide 1-6)
Key: 81

Exercise: Quick one: CC[C@H](C)[C@@H]1NC(=O)[C@H](Cc2ccc(O)cc2)NC(=O)[C@@H](N)CSSC[C@@H](C(=O)NCc2ccc(/N=N/c3ccc(C(=O)N[C@@H](CC(C)C)C(=O)NCC(N)=O)cc3)cc2)NC(=O)[C@H](CC(N)=O)NC(=O)[C@H](CCC(N)=O)NC1=O [compound 11, [AzbL^7]-OT] (H-CYIQNC[AMPB(E)]LG-NH2; disulfide 1-6)
Key: 85

###

system_under_test: hV1bR (Homo sapiens)
Construct: expressed in transfected cells
Sequence (P47901 1-424): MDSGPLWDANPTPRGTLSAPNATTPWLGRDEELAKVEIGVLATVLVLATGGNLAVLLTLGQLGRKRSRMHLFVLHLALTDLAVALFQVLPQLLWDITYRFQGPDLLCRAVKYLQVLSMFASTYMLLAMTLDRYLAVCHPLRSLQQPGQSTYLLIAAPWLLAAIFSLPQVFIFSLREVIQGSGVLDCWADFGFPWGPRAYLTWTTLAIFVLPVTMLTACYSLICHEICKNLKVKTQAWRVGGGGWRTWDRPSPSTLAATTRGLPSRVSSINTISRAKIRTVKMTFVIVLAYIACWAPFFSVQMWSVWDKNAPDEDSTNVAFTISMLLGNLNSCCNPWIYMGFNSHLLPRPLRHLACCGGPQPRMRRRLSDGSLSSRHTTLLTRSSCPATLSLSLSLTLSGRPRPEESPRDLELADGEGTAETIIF
procedure_summary: IP-One accumulation assay, agonist function, HEK293 cells expressing hV1bR
Type: cell-based
run_conditions: HEK293; relative to the effect of VP; read-out: V1bR Emax ± SEM
Numbered stars: 1 amine (or outer) side, 2 acyl side, 3 side chain; on linkers, the order of the positions; unused ones are H or OH. Bridge positions count the residues as written; N and C are the ends. Square brackets hold non-standard residues; d marks the D form. Peptide text beside a SMILES is read from it. AMPB(E) = O=C(c1ccc(/N=N/c2ccc(CN[*:1])cc2)cc1)[*:2]; X2 = O=C(c1ccc(/N=N\c2ccc(CN[*:1])cc2)cc1)[*:2]
Give Emax for every item shown.
Please report the result as a number followed by the unit.

Exercise: Please give the measured Emax for this molecule: N=C(N)NCCC[C@H](NC(=O)c1ccc(/N=N/c2ccc(CNC(=O)[C@@H]3CSSC[C@H](N)C(=O)N[C@@H](Cc4ccc(O)cc4)C(=O)N[C@@H](Cc4ccccc4)C(=O)N[C@@H](CCC(N)=O)C(=O)N[C@@H](CC(N)=O)C(=O)N3)cc2)cc1)C(=O)NCC(N)=O [E-14] (H-CYFQNC[AMPB(E)]RG-NH2; disulfide 1-6)
Key: 48%

Exercise: Would you kindly repeat that for NC(=O)CC[C@@H]1NC(=O)[C@H](Cc2ccccc2)NC(=O)[C@H](Cc2ccc(O)cc2)NC(=O)[C@@H](N)CSSC[C@@H](C(=O)NCc2ccc(/N=N\c3ccc(C(=O)NCC(N)=O)cc3)cc2)NC(=O)[C@H](CC(N)=O)NC1=O [Z-13] (H-CYFQNC[X2]G-NH2; disulfide 1-6) ?
Key: 52%

Exercise: Also N=C(N)NCCC[C@H](NC(=O)c1ccc(/N=N\c2ccc(CNC(=O)[C@@H]3CSSC[C@H](N)C(=O)N[C@@H](Cc4ccc(O)cc4)C(=O)N[C@@H](Cc4ccccc4)C(=O)N[C@@H](CCC(N)=O)C(=O)N[C@@H](CC(N)=O)C(=O)N3)cc2)cc1)C(=O)NCC(N)=O [Z-14] (H-CYFQNC[X2]RG-NH2; disulfide 1-6) ?
Key: 67%

Exercise: How about NC(=O)CC[C@@H]1NC(=O)[C@H](Cc2ccccc2)NC(=O)[C@H](Cc2ccc(O)cc2)NC(=O)[C@@H](N)CSSC[C@@H](C(=O)NCc2ccc(/N=N/c3ccc(C(=O)NCC(N)=O)cc3)cc2)NC(=O)[C@H](CC(N)=O)NC1=O [E-13] (H-CYFQNC[AMPB(E)]G-NH2; disulfide 1-6) ?
Key: 45%
